Target: T1, interleukin 5 (IL5) (human, UniProt P05113 20-134)
T1 construct: also called human IL5 (R&D Systems)
T1 sequence (looked up): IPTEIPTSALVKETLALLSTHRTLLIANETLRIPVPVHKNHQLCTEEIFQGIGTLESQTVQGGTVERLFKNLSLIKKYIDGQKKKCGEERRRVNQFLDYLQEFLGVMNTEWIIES
Test: phage competition ELISA (phage IC50), soluble IL5 against IL5-coated wells
pIC50: −log10 of the molar value.
Readout name: pIC50

Data request: Fill blank: measured pIC50 of the binder 1C.94 (Fab, V domains shown) VH: EVQLVQSGAEVKKPGASVKVSCKASGYTFTDYFIHWVRQAPGQGLEWIGGIVYDATGFTAYADDFKGRVTITRDTSTSTAYLELSSLRSEDTAVYYCARGGIFYGMDYWGQGTLVTVSS VL: DIQMTQSPSSLSASVGDRVTITCKASQSVINDAAWYQQKPGKAPKLLIYYTSHRYTGVPSRFSGSGSGTDFTLTISSLQEDFATYYCQQDYTSPWTFGQGTKVEIKR is ____.
Data returned: ~6.00

Data request: Fill blank: measured pIC50 of the binder 2B.6 (Fab, V domains shown) VH: EVQLVQSGAEVKKPGASVKVSCKASGYTFTDYFIHWVRQAPGQGLEWIAGIVYDATGFTTYADLFKGRVTITIDFSTSTAYLELSSLRSEDTAVYYCARGGIFYGMDYWGQGTLVTVSS VL: DIQMTQSPSSLSASVGDRVTITCKASQSVINDAAWYQQKPGKAPKLLIYYTSHRYTGVPSRFSGSGSGTDFTLTISSLQEDFATYYCQQDYTSPWTFGQGTKVEIKR is ____.
Data returned: ~6.00

Data request: Fill blank: measured pIC50 of the binder 2C.75 (Fab, V domains shown) VH: EVQLVQSGAEVKKPGASVKVSCKASGYTFTDYFIHWVRQAPGQGLEWIAGIVYDATGFTTYADFFKGRVTITRDTSTSTVYLELSSLRSEDTAVYYCARGGIFYGMDYWGQGTLVTVSS VL: DIQMTQSPSSLSASVGDRVTITCKASQSVINDAAWYQQKPGKAPKLLIYYTSHRYTGVPSRFSGSGSGTDFTLTISSLQEDFATYYCQQDYTSPWTFGQGTKVEIKR is ____.
Data returned: 9.22

Data request: Fill blank: measured pIC50 of the binder 1C.91 (Fab, V domains shown) VH: EVQLVQSGAEVKKPGASVKVSCKASGYTFTDYFIHWVRQAPGQGLEWIGGIVYDATGFTTYAEDFKGRVTITRDTSTSTAYLELSSLRSEDTAVYYCARGGIFYGMDYWGQGTLVTVSS VL: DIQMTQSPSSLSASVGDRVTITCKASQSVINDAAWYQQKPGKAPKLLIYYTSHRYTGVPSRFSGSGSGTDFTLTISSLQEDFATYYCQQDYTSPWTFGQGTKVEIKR is ____.
Data returned: ~6.00

Data request: Fill blank: measured pIC50 of the binder 1C.11 (Fab, V domains shown) VH: EVQLVQSGAEVKKPGASVKVSCKASGYTFTDYFIHWVRQAPGQGLEWIGGIVYDATGFTIYAENFKGRVTITRDTSTSTAYLELSSLRSEDTAVYYCARGGIFYGMDYWGQGTLVTVSS VL: DIQMTQSPSSLSASVGDRVTITCKASQSVINDAAWYQQKPGKAPKLLIYYTSHRYTGVPSRFSGSGSGTDFTLTISSLQEDFATYYCQQDYISPWTFGQGTKVEIKR is ____.
Data returned: ~6.00
